# assay_method_text: self-splicing fitness, log relative to wild type (ln ratio); higher = more splicing; Tetrahymena group I intron in knt gene, E. coli kanamycin selection, DiMSum; sequences stand for … in CUCUCU…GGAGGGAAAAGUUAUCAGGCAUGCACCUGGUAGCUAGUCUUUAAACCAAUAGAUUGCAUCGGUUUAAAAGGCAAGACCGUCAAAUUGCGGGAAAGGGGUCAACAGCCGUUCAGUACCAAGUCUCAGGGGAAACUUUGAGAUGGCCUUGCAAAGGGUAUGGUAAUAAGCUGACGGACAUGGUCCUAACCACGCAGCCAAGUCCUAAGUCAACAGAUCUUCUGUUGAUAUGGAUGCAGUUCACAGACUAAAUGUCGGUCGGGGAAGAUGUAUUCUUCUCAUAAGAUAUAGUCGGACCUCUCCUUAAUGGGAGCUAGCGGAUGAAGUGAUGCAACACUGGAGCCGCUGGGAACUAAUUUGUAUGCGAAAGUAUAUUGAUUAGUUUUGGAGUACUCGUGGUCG;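 note: selection with 25 µg/mL kanamycin versus none on LB agar overnight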
# settings: 37 °C
Each item that follows carries a reported self-splicing fitness (ln).

[
  {
    "seq_text": "CAACAGCAAUAUUACGUUUA",
    "self-splicing fitness (ln)": -0.887
  },
  {
    "seq_text": "GGGCAGCAAUAUUACGCAAC",
    "self-splicing fitness (ln)": -1.56
  },
  {
    "seq_text": "CGUGAGCAAUAUUACGAGCA",
    "self-splicing fitness (ln)": -0.55
  },
  {
    "seq_text": "UCGCAGCAAUAUUACGGCCA",
    "self-splicing fitness (ln)": 0.246
  },
  {
    "seq_text": "GUCAAGCAAUAUUACGGAUA",
    "self-splicing fitness (ln)": -1.27
  },
  {
    "seq_text": "CACUAGCAAUAUUACGGUAG",
    "self-splicing fitness (ln)": -0.969
  },
  {
    "seq_text": "AUAUAGCAAUAUUACGCAUU",
    "self-splicing fitness (ln)": -1.42
  },
  {
    "seq_text": "UUGGAGCAAUAUUACGGUCA",
    "self-splicing fitness (ln)": -2.65
  }
]
